system: peripheral blood lymphocytes; assay type: cell-based, HHD mice
Quantity Kind: ex vivo ELISPOT response from PBL

sequence_content="LQARLFPGL (listed as Homo sapiens)" target_system="peripheral blood lymphocytes" test_value="not seen"
sequence_content="KLGLEVYVT (listed as Homo sapiens)" target_system="peripheral blood lymphocytes" test_value="not seen"
sequence_content="NLEKSCVSV (listed as Homo sapiens)" target_system="peripheral blood lymphocytes" test_value="not seen"
